Tested on: E. coli ATCC 25922
Test: Agar diffusion growth inhibition zone, E. coli ATCC 25922
Format: cell-based
Test Conditions: Escherichia coli, ATCC25922, 100 mg, 6 mm = no activity
Measurement Name: zone of inhibition at 100 mg/mL (mm)
The figure you give is taken to be in mm; do not add the unit.

These solved cases illustrate the format of a correct answer.
{"Molecule": "COc1cc(/C=C/C(=O)COC(=O)/C=C/c2ccc(O)cc2)ccc1O", "zone of inhibition at 100 mg/mL, mm": 6}
{"Molecule": "COc1cc(/C=C/C(=O)OCC(=O)/C=C/c2ccc(O)cc2)ccc1O", "zone of inhibition at 100 mg/mL, mm": 6}
{"Molecule": "COc1cc(/C=C/C(=O)COC(=O)/C=C/c2ccc(O)c(OC)c2)ccc1O", "zone of inhibition at 100 mg/mL, mm": 6}

[Q] Query: zone of inhibition at 100 mg/mL; subject: COc1cc(CCc2cc(CCc3ccc(O)c(OC)c3)on2)ccc1O [compound 8, Tetrahydrocurcumin Isoxazole]
[A] 6

[Q] Query: zone of inhibition at 100 mg/mL; subject: COc1cc(CCC(=O)/C=C(\N)CCc2ccc(O)c(OC)c2)ccc1O [compound 9, Amino- tetrahydrocurcumin]
[A] 6

[Q] Query: zone of inhibition at 100 mg/mL; subject: `O=C(/C=C/c1ccc(O)cc1)CC(=O)/C=C/c1ccc(O)cc1`
[A] 6

---

System: EAEC
Test: Agar diffusion growth inhibition zone, EAEC
Type: cell-based, Enteroaggregative E. coli
Test Conditions: Escherichia coli, 150 mg, 6 mm = no activity
Measurement Name: zone of inhibition at 150 mg/mL (mm)
The figure you give is taken to be in mm; do not add the unit.

These solved cases illustrate the format of a correct answer.
{"Compound": "COc1cc(/C=C/C(=O)COC(=O)/C=C/c2ccc(OC(C)=O)c(OC)c2)ccc1OC(C)=O [compound 6, O,O′- Diacetylcalebin-A]", "System Tested": "EAEC", "Quantity Unit": "mm", "zone of inhibition at 150 mg/mL": 7}
{"Compound": "COc1cc(CCc2cc(CCc3ccc(O)c(OC)c3)on2)ccc1O [compound 8, Tetrahydrocurcumin Isoxazole]", "System Tested": "EAEC", "Quantity Unit": "mm", "zone of inhibition at 150 mg/mL": 8}
{"Compound": "O=C(/C=C/c1ccc(O)cc1)CC(=O)/C=C/c1ccc(O)cc1 [compound 3, Bis- demethoxycurcumin]", "System Tested": "EAEC", "Quantity Unit": "mm", "zone of inhibition at 150 mg/mL": 6}
{"Compound": "COc1cc(/C=C/C(=O)COC(=O)/C=C/c2ccc(O)c(OC)c2)ccc1O [compound 5, Calebin-A]", "System Tested": "EAEC", "Quantity Unit": "mm", "zone of inhibition at 150 mg/mL": 7}

Here is another compound to look at.
[Q] Query: zone of inhibition at 150 mg/mL; subject: COc1cc(CCC(=O)/C=C(\N)CCc2ccc(O)c(OC)c2)ccc1O [compound 9, Amino- tetrahydrocurcumin]
[A] 6

---

System: Aeromonas sp.
Test: Agar diffusion growth inhibition zone, Aeromonas sp.
Assay type: cell-based, Aeromonas species
Test Conditions: Aeromonas sp.; 100 mg; 6 mm = no activity
Procedure: Among the bacterial agents tested Gram positive and Gram negative bacterial groups represented by Staphylococcus aureus and Enterococcus species and pathogenic members of Enterobacteriaceae, Vibronaceae, Aeromonadaceae, Pseudomonadaceae were tested. […]
Measurement Name: zone of inhibition at 100 mg/mL (mm)
The figure you give is taken to be in mm; do not add the unit.

These solved cases illustrate the format of a correct answer.
{"Compound": "CCOC(=O)Oc1ccc(/C=C/C(=O)COC(=O)/C=C/c2ccc(OC(=O)OCC)c(OC)c2)cc1OC [compound 7, Diethylcalebin-A dicarbonate]", "System Tested": "Aeromonas sp.", "Quantity Unit": "mm", "Reported Measurement": 6}
{"Compound": "COc1cc(/C=C/C(=O)COC(=O)/C=C/c2ccc(OC(C)=O)c(OC)c2)ccc1OC(C)=O", "System Tested": "Aeromonas sp.", "Quantity Unit": "mm", "Reported Measurement": 6}

[Q] Query: zone of inhibition at 100 mg/mL; subject: `COc1cc(/C=C/C(=O)COC(=O)/C=C/c2ccc(O)cc2)ccc1O`
[A] 6

[Q] Query: zone of inhibition at 100 mg/mL; subject: `O=C(/C=C/c1ccc(O)cc1)CC(=O)/C=C/c1ccc(O)cc1`
[A] 6
